biological target: T1, human TfR extracellular domain with N-terminal His tag (human, UniProt P02786 89-760); test: ELISA, IgG;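 note: ELISA of IgG-containing supernatants tested in 1:5 serial dilutions for 1 h, bound antibody read out with HRP anti-kappa antibody and TMB substrate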
T1 construct: Biotinylated in some assays; also called huTfR; HuTfR
T1 sequence (P02786 89-760 G142S): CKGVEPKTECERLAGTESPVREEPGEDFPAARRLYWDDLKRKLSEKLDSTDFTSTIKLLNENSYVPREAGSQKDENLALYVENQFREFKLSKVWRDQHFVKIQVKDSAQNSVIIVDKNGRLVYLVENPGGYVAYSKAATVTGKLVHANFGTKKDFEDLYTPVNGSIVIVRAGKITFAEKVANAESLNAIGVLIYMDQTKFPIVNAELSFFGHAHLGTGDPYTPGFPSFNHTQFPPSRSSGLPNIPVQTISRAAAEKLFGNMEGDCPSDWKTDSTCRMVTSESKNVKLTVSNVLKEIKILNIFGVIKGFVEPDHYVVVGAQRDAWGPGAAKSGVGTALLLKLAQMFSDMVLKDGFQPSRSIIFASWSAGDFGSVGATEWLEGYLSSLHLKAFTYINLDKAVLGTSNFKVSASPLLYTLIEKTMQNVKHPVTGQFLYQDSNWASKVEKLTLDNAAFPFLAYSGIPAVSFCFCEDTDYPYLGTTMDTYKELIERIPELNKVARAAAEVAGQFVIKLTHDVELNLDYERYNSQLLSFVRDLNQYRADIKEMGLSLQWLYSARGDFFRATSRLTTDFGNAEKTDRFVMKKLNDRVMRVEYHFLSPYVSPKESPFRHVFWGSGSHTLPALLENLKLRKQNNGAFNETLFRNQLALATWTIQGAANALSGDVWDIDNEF
readout: EC50

INSERT INTO measurements (binder, readout, reported_value) VALUES
  ('hu7A4.v15 IgG (antibody, V domains shown, Human IgG; also called humanized 7A4.v15) VH: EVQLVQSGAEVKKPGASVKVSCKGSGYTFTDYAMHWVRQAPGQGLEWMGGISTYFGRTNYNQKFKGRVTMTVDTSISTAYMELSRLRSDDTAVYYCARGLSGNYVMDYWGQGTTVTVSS VL: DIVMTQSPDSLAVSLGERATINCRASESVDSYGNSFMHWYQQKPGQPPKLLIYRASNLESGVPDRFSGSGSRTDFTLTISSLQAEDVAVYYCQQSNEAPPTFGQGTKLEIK', 'EC50', '0.0148 µg/mL'),
  ('T97A (antibody, V domains shown, also called 7A4.v15 T97A (CDR-L3) IgG) VH: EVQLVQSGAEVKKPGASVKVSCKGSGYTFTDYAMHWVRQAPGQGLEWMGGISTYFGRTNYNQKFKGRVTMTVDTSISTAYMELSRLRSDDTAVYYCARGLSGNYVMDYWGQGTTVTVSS VL: DIVMTQSPDSLAVSLGERATINCRASESVDSYGNSFMHWYQQKPGQPPKLLIYRASNLESGVPDRFSGSGSRTDFTLTISSLQAEDVAVYYCQQSNEAPPAFGQGTKLEIK', 'EC50', '0.012 µg/mL'),
  ('S91A (antibody, V domains shown, also called 7A4.v15 S91A (CDR-L3) IgG) VH: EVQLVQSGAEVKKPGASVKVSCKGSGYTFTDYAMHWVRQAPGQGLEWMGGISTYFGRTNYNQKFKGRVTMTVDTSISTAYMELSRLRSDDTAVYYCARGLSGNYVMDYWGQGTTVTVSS VL: DIVMTQSPDSLAVSLGERATINCRASESVDSYGNSFMHWYQQKPGQPPKLLIYRASNLESGVPDRFSGSGSRTDFTLTISSLQAEDVAVYYCQQANEAPPTFGQGTKLEIK', 'EC50', '0.0113 µg/mL');

Every entry's value here was drawn from patent US20180057604A1.
